Assignment: determine reported Emax for the given molecules.
system-tested: Human recombinant PDE10A (hPDE10A) (Homo sapiens, UniProt Q9Y233)
Construct: His tag (inferred from metal chelate purification); made in house; host or cells: Sf9 insect cells (baculovirus)
Sequence (Q9Y233 267-1055): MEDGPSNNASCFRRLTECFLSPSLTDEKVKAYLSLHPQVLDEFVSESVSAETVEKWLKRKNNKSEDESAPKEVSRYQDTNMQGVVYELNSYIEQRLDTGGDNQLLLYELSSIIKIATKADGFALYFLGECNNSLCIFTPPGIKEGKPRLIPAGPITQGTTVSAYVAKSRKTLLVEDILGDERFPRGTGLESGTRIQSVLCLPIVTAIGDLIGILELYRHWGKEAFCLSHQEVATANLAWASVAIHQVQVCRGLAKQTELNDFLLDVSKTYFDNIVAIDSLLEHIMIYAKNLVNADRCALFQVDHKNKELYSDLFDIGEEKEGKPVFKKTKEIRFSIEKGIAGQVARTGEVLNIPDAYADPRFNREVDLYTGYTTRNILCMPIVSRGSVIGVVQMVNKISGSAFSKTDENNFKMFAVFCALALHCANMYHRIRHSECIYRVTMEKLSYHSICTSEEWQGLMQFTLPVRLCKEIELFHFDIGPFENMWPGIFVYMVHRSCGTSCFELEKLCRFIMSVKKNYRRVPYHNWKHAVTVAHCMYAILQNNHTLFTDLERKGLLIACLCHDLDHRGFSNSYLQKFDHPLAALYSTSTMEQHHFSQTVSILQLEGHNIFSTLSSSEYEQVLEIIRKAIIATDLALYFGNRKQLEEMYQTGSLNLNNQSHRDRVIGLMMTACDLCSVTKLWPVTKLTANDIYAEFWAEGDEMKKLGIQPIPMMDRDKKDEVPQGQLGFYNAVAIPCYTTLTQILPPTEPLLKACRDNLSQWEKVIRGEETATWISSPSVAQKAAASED
protocol: In vitro assay PDE10A, human clone (SPA, 3H-cAMP hydrolysis)
Format: biochemical
condition-summary: human clone by default (no (r) mark); read-out: hPDE10A2 or rPDE10A2 Emax
Method: Rat recombinant PDE10A (rPDE10A2) was expressed in Sf9 cells using a recombinant rPDE10A baculovirus construct. […] Tested compounds were dissolved and diluted in 100% DMSO to a concentration 100 fold of the final concentration in the assay. […] After sedimentation of the beads during 30 minutes the radioactivity was measured in a Perkin Elmer Topcount scintillation counter and results were expressed as cpm. […]
Please provide the amount together with its unit, number first.

Let me check: O=C(c1ccc2ncc(F)cc2c1)N1[C@H]2CC[C@H](c3cc(C(F)F)nc4ncnn34)[C@@H]1CC2 , system Human recombinant PDE10A (hPDE10A) (Homo sapiens, UniProt Q9Y233), measured Emax is 93%

Let me check: C[C@@H]1CCN(C(=O)c2ncc(C#N)cc2Cl)C[C@H]1c1cc(C(F)F)nc2ncnn12 , system Human recombinant PDE10A (hPDE10A) (Homo sapiens, UniProt Q9Y233), measured Emax is 48%

Let me check: C[C@@H]1CCN(C(=O)c2cc(C(C)(C)C)nc(C(C)(C)C)c2)C[C@H]1c1cc(C(F)F)nc2ncnn12 , system Human recombinant PDE10A (hPDE10A) (Homo sapiens, UniProt Q9Y233), measured Emax is 89%

Let me check: Cc1cc(C(=O)N2CC[C@@H](C)[C@H](c3cc(C(F)F)nc4ncnn34)C2)c(F)c(C2CC2)n1 , system Human recombinant PDE10A (hPDE10A) (Homo sapiens, UniProt Q9Y233), measured Emax is 99%

Let me check: COc1ncc(C)cc1C(=O)N1CC[C@@H](C)[C@H](c2cc(C(F)F)nc3ncnn23)C1 , system Human recombinant PDE10A (hPDE10A) (Homo sapiens, UniProt Q9Y233), measured Emax is 93%

Let me check: Cc1cc(C(=O)N2[C@H]3CC[C@H](c4cc(C(F)F)nc5ncnn45)[C@@H]2CC3)ccc1Cl , system Human recombinant PDE10A (hPDE10A) (Homo sapiens, UniProt Q9Y233), measured Emax is 94%

Let me check: C/C(=C\c1ccccc1)C(=O)N1[C@H]2CC[C@H](c3cc(C(F)F)nc4ncnn34)[C@@H]1CC2 , system Human recombinant PDE10A (hPDE10A) (Homo sapiens, UniProt Q9Y233), measured Emax is 98%

Let me check: Cc1cc(C(=O)N2[C@H]3CC[C@@H]2[C@H](c2cc(C(F)F)nc4ncnn24)CC3)cc(C(F)(F)F)n1 , system Human recombinant PDE10A (hPDE10A) (Homo sapiens, UniProt Q9Y233), measured Emax is 37%

Let me check: O=C(c1cccc2cccnc12)N1[C@H]2CC[C@H](c3cc(C(F)F)nc4ncnn34)[C@@H]1CC2 , system Human recombinant PDE10A (hPDE10A) (Homo sapiens, UniProt Q9Y233), measured Emax is 14%

Let me check: C[C@@H]1CCN(C(=O)c2ccno2)C[C@H]1c1cc(C(F)F)nc2ncnn12 , system Human recombinant PDE10A (hPDE10A) (Homo sapiens, UniProt Q9Y233), measured Emax is 70%

Let me check: C[C@@H]1CCN(C(=O)c2ccncn2)C[C@H]1c1cc(C(F)F)nc2ncnn12 , system Human recombinant PDE10A (hPDE10A) (Homo sapiens, UniProt Q9Y233), measured Emax is 48%

Let me check: C[C@@H]1CCN(C(=O)c2cc(Cl)cc(Cl)c2)C[C@H]1c1cc(C(F)F)nc2ncnn12 , system Human recombinant PDE10A (hPDE10A) (Homo sapiens, UniProt Q9Y233), measured Emax is 98%

Let me check: C[C@@H]1CCN(C(=O)c2cn(C)c3ccccc23)C[C@H]1c1cc(C(F)F)nc2ncnn12 , system Human recombinant PDE10A (hPDE10A) (Homo sapiens, UniProt Q9Y233), measured Emax is 100%

Let me check: Cc1nc2cccc(C(=O)N3[C@H]4CC[C@H](c5cc(C(F)F)nc6ncnn56)[C@@H]3CC4)c2o1 , system Human recombinant PDE10A (hPDE10A) (Homo sapiens, UniProt Q9Y233), measured Emax is 57%

Let me check: Cc1cc(C(=O)N2CC[C@H](C)[C@@H](c3cc(C(F)F)nc4ncnn34)C2)cc(C)n1 , system Human recombinant PDE10A (hPDE10A) (Homo sapiens, UniProt Q9Y233), measured Emax is 41%

Let me check: CCCC[C@H]1CCN(C(=O)c2cc(C)nc(C)c2)C[C@H]1c1cc(C(F)F)nc2ncnn12 (mixture of isomers) , system Human recombinant PDE10A (hPDE10A) (Homo sapiens, UniProt Q9Y233), measured Emax is 45%

Let me check: O=C(c1cc(Cl)cc(Cl)c1)N1[C@H]2CC[C@H](c3cc(C(F)F)nc4ncnn34)[C@@H]1CC2 , system Human recombinant PDE10A (hPDE10A) (Homo sapiens, UniProt Q9Y233), measured Emax is 93%

Let me check: C[C@@H]1CCN(C(=O)c2ncc[nH]2)C[C@H]1c1cc(C(F)F)nc2ncnn12 , system Human recombinant PDE10A (hPDE10A) (Homo sapiens, UniProt Q9Y233), measured Emax is 51%
